- tgt: Recombinant STAT6 protein (STAT6 (W123-T658)) (Homo sapiens)
- Construct: Recombinant STAT6 protein (STAT6 (W123-T658))
- test_name: STAT6 Fluorescence Polarization (FP) Assay
- Assay type: binding
- assay_conditions: STAT6 (W123-T658) 250 nM, probe 5-FAM-Ap[…]-NH2 2 nM, 45-minute incubation; read-out: STAT6 (FP assay IC50 class)
value_kind: IC50

Would you please look over these solved cases?
{"compound": "COc1cc(C2CN(C(=O)C3CCC4CCCCC(NC(=O)c5cc6cc(C(F)(F)P(=O)(O)O)ccc6s5)C(=O)N43)CC2C#N)cc(C)n1 (mixture of isomers) [Compound 874]", "IC50": "0.3 to 3 µM"}
{"compound": "NC(=O)N1CC[C@@H](NC(=O)[C@@H]2CC[C@@H]3CCCC[C@H](NC(=O)c4cc5cc(C(F)P(=O)(O)O)ccc5s4)C(=O)N32)C1 (stereo partly drawn) [Compound 532]", "IC50": "3 to 30 µM"}

// lookup IC50 for O=C(N[C@H]1CCC[C@H]2CC[C@@H](C(=O)N3CC(c4n[nH]cc4F)C3)N2C1=O)c1cc2cc(C(F)P(=O)(O)O)ccc2s1 (stereo partly drawn) [Compound 595]
3 to 30 µM

* * *

pIC50 values by entry
- tgt: pY705-STAT3 in PBMC (Homo sapiens)
- Construct: Cryopreserved Peripheral Blood Mononuclear Cells (PBMC) are from AllCells; host or cells: cryopreserved PBMC
- test_name: MSD-pSTAT-PBMC Assay (pSTAT3, IL-6 stimulated)
- Assay type: cell-based
- assay_conditions: PBMC, compound 3 hrs, then 10 ng/mL IL-6 for 10 min; Table 115; read-out: STAT3
pIC50: −log10 of the molar value.

Would you please look over these solved cases?
{"compound": "CC(C)CC(=O)SCCOP(=O)(Oc1cccc(C#N)c1)C(F)(F)c1ccc2sc(C(=O)N[C@H]3CCC[C@H]4CC[C@@H](C(=O)N5CC(c6cccnc6)C5)N4C3=O)cc2c1 (stereo partly drawn) [Compound 1008]", "value_kind": "pIC50", "meas_value": "6.00 to 7.00"}
{"compound": "CCCOC(=O)[C@H](C)NP(=O)(Cc1ccc2sc(C(=O)N[C@H]3CCC[C@H]4CC[C@@H](C(=O)N5CC(c6cnccc6N(C)C)C5)N4C3=O)cc2c1)OCC(F)(F)F (stereo partly drawn) [Compound 1025]", "value_kind": "pIC50", "meas_value": "> 7.00"}
{"compound": "CCCOC(=O)[C@H](C)N[P@@](=O)(Oc1ccccc1)[C@@H](F)c1ccc2sc(C(=O)N[C@H]3CCC[C@H]4CC[C@@H](C(=O)N5CC(c6cnccc6C)C5)N4C3=O)cc2c1 (single isomer, unassigned) [Compound 1027]", "value_kind": "pIC50", "meas_value": "> 7.00"}
{"compound": "CCCOC(=O)[C@H](C)NP(=O)(Oc1ccccc1)[C@@H](F)c1ccc2sc(C(=O)N[C@H]3CCC[C@H]4CC[C@@H](C(=O)N5CC(c6cnccc6OCC)C5)N4C3=O)cc2c1 (stereo partly drawn) [Compound 494]", "value_kind": "pIC50", "meas_value": "> 7.00"}
{"compound": "CCCOC(=O)[C@H](C)NP(=O)(Oc1ccccc1)C(F)c1ccc2sc(C(=O)N[C@H]3CCC[C@H]4CC[C@@H](C(=O)N5CC(c6cnccc6F)C5)N4C3=O)cc2c1 (stereo partly drawn) [Compound 943]", "value_kind": "pIC50", "meas_value": "> 7.00"}
{"compound": "CCCOC(=O)[C@H](C)NP(=O)(Cc1ccc2sc(C(=O)N[C@H]3C[C@@H](C)C[C@H]4CC[C@@H](C(=O)N5CC(c6cnccc6C)C5)N4C3=O)cc2c1)Oc1ccccc1 (stereo partly drawn) [Compound 284]", "value_kind": "pIC50", "meas_value": "> 7.00"}
{"compound": "CC(C)CC(=O)SCCOP(=O)(OCOC(=O)OC1COC1)C(F)(F)c1ccc2sc(C(=O)N[C@H]3CCCC[C@H]4CC[C@@H](C(=O)N5C[C@H](c6cc[nH]c(=O)c6)[C@@H](C#N)C5)N4C3=O)cc2c1 (single isomer, unassigned) [Compound 1093]", "value_kind": "pIC50", "meas_value": "< 5.52"}
{"compound": "CCCOC(=O)[C@H](C)NP(=O)(Oc1ccccc1)[C@@H](F)c1ccc2sc(C(=O)N[C@H]3CCC[C@H]4CC[C@@H](C(=O)N[C@H]5CN(c6ncc[nH]6)C[C@@H]5F)N4C3=O)cc2c1 (stereo partly drawn) [Compound 1030]", "value_kind": "pIC50", "meas_value": "< 5.52"}

The record that follows has no pIC50 shown yet.
Entry CCCOC(=O)[C@H](C)NP(=O)(Oc1ccccc1)[C@H](F)c1ccc2sc(C(=O)N[C@H]3CCC[C@H]4CC[C@@H](C(=O)N5CC(c6cnccc6OCC)C5)N4C3=O)cc2c1 (stereo partly drawn) [Compound 484] , system pY705-STAT3 in PBMC (Homo sapiens): what pIC50 was measured?
> 7.00

* * *

- tgt: pY705-STAT3 in PBMC (Homo sapiens, UniProt P40763)
- Construct: Cryopreserved Peripheral Blood Mononuclear Cells (PBMC) are from AllCells; host or cells: cryopreserved PBMC
- Sequence (P40763 whole entry): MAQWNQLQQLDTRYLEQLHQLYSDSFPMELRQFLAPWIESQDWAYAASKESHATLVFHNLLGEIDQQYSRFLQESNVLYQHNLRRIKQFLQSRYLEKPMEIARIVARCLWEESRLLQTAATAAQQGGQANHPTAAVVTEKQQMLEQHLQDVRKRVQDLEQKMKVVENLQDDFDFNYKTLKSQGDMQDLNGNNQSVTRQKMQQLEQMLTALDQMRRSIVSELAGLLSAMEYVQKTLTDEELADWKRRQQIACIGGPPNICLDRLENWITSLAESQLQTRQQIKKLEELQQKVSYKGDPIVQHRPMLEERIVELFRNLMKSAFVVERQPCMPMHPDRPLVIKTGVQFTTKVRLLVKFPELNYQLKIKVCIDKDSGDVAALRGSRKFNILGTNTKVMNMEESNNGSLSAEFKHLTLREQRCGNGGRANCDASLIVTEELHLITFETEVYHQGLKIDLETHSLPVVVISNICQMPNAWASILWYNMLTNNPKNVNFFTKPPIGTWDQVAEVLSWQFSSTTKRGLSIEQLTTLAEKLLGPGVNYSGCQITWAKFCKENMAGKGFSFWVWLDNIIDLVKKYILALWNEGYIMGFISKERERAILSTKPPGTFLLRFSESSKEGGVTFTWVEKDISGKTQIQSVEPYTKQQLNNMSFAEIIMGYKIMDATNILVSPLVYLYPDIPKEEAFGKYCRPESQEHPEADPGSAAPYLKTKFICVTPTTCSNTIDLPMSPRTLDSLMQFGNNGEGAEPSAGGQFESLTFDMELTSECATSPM
- test_name: MSD-pSTAT-PBMC Assay (pSTAT3, IL-6 stimulated)
- Format: cell-based
- assay_conditions: PBMC, compound 3 hrs, then 10 ng/mL IL-6 for 10 min; Table 115; read-out: STAT3
pIC50: −log10 of the molar value.
value_kind: pIC50

Would you please look over these solved cases?
{"compound": "CCCOC(=O)[C@H](C)NP(=O)(Cc1ccc2sc(C(=O)N[C@H]3CCC[C@H]4CC[C@@H](C(=O)N5CC(c6cncnc6N6CC[C@H]6COC)C5)N4C3=O)cc2c1)Oc1ccccc1 (some centres unmarked) [Compound 1072]", "pIC50": "> 7.00"}
{"compound": "CCCOC(=O)[C@H](C)NP(=O)(Oc1ccccc1)[C@@H](F)c1ccc2sc(C(=O)N[C@H]3CC[C@@H](CC)C[C@H]4CC[C@@H](C(=O)N5CC(c6cnccc6N6CCC6)C5)N4C3=O)cc2c1 (some centres unmarked) [Compound 493]", "pIC50": "> 7.00"}
{"compound": "CCCOC(=O)[C@H](C)N[P@@](=O)(Oc1ccccc1)[C@H](F)c1ccc2sc(C(=O)N[C@H]3CCC[C@H]4CC[C@@H](C(=O)N5CC(c6cccnc6)C5)N4C3=O)cc2c1 [Compound 464]", "pIC50": "> 7.00"}
{"compound": "CC(C)COC(=O)[C@H](C)NP(=O)(Cc1ccc2ccc(C(=O)N[C@H]3CCCC[C@H]4CC[C@@H](C(=O)N5CC(c6ccccc6)CC56CC6)N4C3=O)cc2c1)Oc1ccccc1 (some centres unmarked) [Compound 410]", "pIC50": "< 5.52"}

Entry CCCOC(=O)[C@H](C)NP(=O)(Oc1ccccc1)[C@H](F)c1ccc2sc(C(=O)N[C@H]3CCC[C@H]4CC[C@@H](C(=O)N5CC(c6cncnc6N6CC[C@H]6COC)C5)N4C3=O)cc2c1 (some centres unmarked) [Compound 1018] , system pY705-STAT3 in PBMC (Homo sapiens, UniProt P40763): what pIC50 was measured?
> 7.00

* * *

pIC50 values by entry
- tgt: Recombinant STAT6 protein (STAT6 (W123-T658)) (Homo sapiens, UniProt P42226)
- Construct: Recombinant STAT6 protein (STAT6 (W123-T658))
- Sequence (P42226 123-658): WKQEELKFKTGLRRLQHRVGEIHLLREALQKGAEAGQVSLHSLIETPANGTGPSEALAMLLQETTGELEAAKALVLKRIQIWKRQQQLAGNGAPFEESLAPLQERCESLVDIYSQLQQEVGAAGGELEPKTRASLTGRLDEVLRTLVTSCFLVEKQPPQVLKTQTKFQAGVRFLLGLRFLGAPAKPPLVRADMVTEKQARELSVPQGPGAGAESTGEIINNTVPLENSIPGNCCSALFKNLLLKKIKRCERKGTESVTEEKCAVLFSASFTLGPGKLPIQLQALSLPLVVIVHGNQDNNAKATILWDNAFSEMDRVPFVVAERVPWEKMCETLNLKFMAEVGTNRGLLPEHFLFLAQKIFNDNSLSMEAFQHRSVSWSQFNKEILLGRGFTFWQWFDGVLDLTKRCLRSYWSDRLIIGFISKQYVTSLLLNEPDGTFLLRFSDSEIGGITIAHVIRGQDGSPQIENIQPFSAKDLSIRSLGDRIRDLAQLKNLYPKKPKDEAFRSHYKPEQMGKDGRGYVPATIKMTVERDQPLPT
- test_name: STAT6 Fluorescence Polarization (FP) Assay
- Assay type: binding
- assay_conditions: STAT6 (W123-T658) 250 nM, probe 5-FAM-Ap[…]-NH2 2 nM, 45-minute incubation; read-out: STAT6 (FP assay IC50 class)
pIC50: −log10 of the molar value.

{"compound": "Cn1ccc([C@@H]2CN(C(=O)[C@@H]3CC[C@@H]4CCCC[C@H](NC(=O)c5cc6cc(C(F)P(=O)(O)O)ccc6s5)C(=O)N43)C[C@H]2C#N)cc1=O (single isomer, unassigned)", "pIC50": "5.52 to 6.52"}
{"compound": "CC[C@H]1CC[C@H](NC(=O)c2cc3cc(C(F)P(=O)(O)O)ccc3s2)C(=O)N2[C@H](CC[C@H]2C(=O)N2CC(c3cnccc3OC)C2)C1 (some centres unmarked)", "pIC50": "4.52 to 5.52"}
{"compound": "Cn1cc(F)c(C2CN(C(=O)[C@@H]3CC[C@@H]4CCC[C@H](NC(=O)c5cc6cc(C(F)P(=O)(O)O)ccc6s5)C(=O)N43)C2)n1 (some centres unmarked)", "pIC50": "4.52 to 5.52"}
{"compound": "N#C[C@@H]1CN(C(=O)[C@@H]2CC[C@@H]3CCCC[C@H](NC(=O)c4ccc5ccc(C(F)P(=O)(O)O)cc5c4)C(=O)N32)C[C@H]1c1ccccc1 (single isomer, unassigned)", "pIC50": "≥ 6.52"}

The record that follows has no pIC50 shown yet.
// lookup pIC50 for C[C@@H]1C[C@H]2CC[C@@H](C(=O)N3CC(c4cnccc4F)C3)N2C(=O)[C@@H](NC(=O)c2cc3cc(C(F)P(=O)(O)O)ccc3s2)C1 (some centres unmarked)
5.52 to 6.52
